assay explanation: NCI Yeast Anticancer Drug Screen. Data for the mec2-1 strain (AID 157)
conditions: S. cerevisiae mec2-1 strain, at 50.0 µM, hits give high values
Method: Growth inhibition of yeast strains with defined genetic alterations is measured as a screen for potential anti-cancer activity. Selected strains with alterations in DNA damage repair or cell cycle control were exposed to compounds and growth inhibition was measured relative to vehicle treated controls. The strain used in this assay is mec2-1
The panel holds about 79,000 compounds, 15% with a hit somewhere; the sample as a whole holds those more often.
Criterion: growth inhibition meeting or surpassing 90%. Met: satisfied. Not met: not satisfied.

Past entries and their recorded results:
- CCC1C(c2cccc(OC)c2O)c2cc3c(cc2OC1N1CCCC1)OCO3 (configuration not stated): not satisfied
- COc1cc(Br)c(CC(NC=O)c2ccc3c(c2)OCO3)cc1OC (configuration not stated): not satisfied

**Q:** Does the molecule Cn1sc2ccccc2c1=S have recorded growth inhibition that is 90% or more?
**A:** satisfied

**Q:** Does the molecule CC(C)(C)C1=CC(=CC=C2C=CN(CCO)C=C2)C=C(C(C)(C)C)C1=O have recorded growth inhibition that is 90% or more?
**A:** not satisfied

**Q:** Does the molecule c1ccc2c(c1)Nc1ccc3ccccc3c1S2 have recorded growth inhibition that is 90% or more?
**A:** not satisfied
